# System: THP-1 (Acute Monocytic Leukemia)
# assay: FMCA cytotoxicity, THP-1
# Type: cell-based, human
# measurementParameters: 72 h
recordedMetric: IC50

Look up IC50 for this molecule: C/C(=N\Nc1nnc2c(n1)[nH]c1c(C)cccc12)c1ccccn1 [Compound A]
< 250 nM

* * *

# Test system: HepG2 (Hepatocellular Carcinoma)
# assay: FMCA cytotoxicity, HepG2
# Format: cell-based, human
# measurementParameters: 72 h
recordedMetric: IC50

Look at this compound and give its reported IC50. `C/C(=N\Nc1nnc2c(n1)[nH]c1c(C)cccc12)c1ccccn1`
< 250 nM
